# System: 186277-243-T-J2-PDC complex spheroid viability;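 note: spheroids exposed to drugs for 7 days; 100% = DMSO vehicle control viability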
# METHOD SUMMARY: Anticancer human tumor 186277-243-T-J2-PDC patient-derived colon adenocarcinoma cell line growth inhibition [GQUAD]
# CONDITION SUMMARY: second compound 3.16 µM; first compound 0.0316 µM; stronger effect = lower value
ASSAY READOUT: viability, T/C

Some compounds with recorded viability, T/C:
COMPOUND | MEASURED TARGET | viability, T/C
Cc1[nH]c2ccccc2c1CCNCc1ccc(/C=C/C(=O)NO)cc1 + Cc1cnc(CNC(=O)c2c(=O)c3ccc(N4CCCN(C)CC4)nc3n3c2sc2ccccc23)cn1 | 186277-243-T-J2-PDC complex spheroid viability | 21.6%
CC(C)(O)C1CCC(Nc2ccc3ncc(-c4cccc(C(F)(F)F)c4)n3n2)CC1 (stereo unspecified) + Cc1[nH]c2ccc(F)cc2c1-c1nc2c3cccnc3c3ncccc3c2[nH]1 | 186277-243-T-J2-PDC complex spheroid viability | 95.6%
COc1ccc([C@@H](O)c2cc(-c3ncnc4cc(N5CCOCC5)ccc34)c(F)cc2Cl)nn1 + CN(C)c1ccc(Nc2c3ccc(NC(=O)CCN4CCCC4)cc3nc3cc(NC(=O)CCN4CCCC4)ccc23)cc1 | 186277-243-T-J2-PDC complex spheroid viability | 98.3%

For record CC1COCCN1c1cc(C2(S(C)(=N)=O)CC2)nc(-c2ccnc3[nH]ccc23)n1 (stereo unspecified) + CN(C)c1ccc(Nc2c3ccc(NC(=O)CCN4CCCC4)cc3nc3cc(NC(=O)CCN4CCCC4)ccc23)cc1 the listed viability, T/C is 91%

Recorded result, O=c1[nH]cc(F)c(=O)[nH]1 + Cc1[nH]c2ccc(F)cc2c1-c1nc2c3cccnc3c3ncccc3c2[nH]1 , viability, T/C: 97.9%

Just so you know, measured viability, T/C for CCc1c2c(nc3ccc(O)cc13)-c1cc3c(c(=O)n1C2)COC(=O)[C@]3(O)CC + Cc1[nH]c2ccc(F)cc2c1-c1nc2c3cccnc3c3ncccc3c2[nH]1 came out at 31%
